# Lookup of reported % inhibition of CsA binding to Cyclophilin A keyed by entry
Biological target: Cyclophilin A (Homo sapiens, UniProt P62937)
Construct: made in house
Sequence (P62937 whole entry, species assumed): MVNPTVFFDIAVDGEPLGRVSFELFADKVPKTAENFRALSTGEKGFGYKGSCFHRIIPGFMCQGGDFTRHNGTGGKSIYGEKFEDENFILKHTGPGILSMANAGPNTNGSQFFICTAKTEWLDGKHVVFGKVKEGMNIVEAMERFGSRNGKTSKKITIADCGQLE
Test: AlphaLISA inhibition of binding of biotinylated Cyclosporin A to FLAG tagged Cyclophilin A
Conditions: test concentration not given
Where a SMILES comes first, the peptide text is derived from it. [ ]: non-standard residue; d: D form. MeBmt = C/C=C/C[C@@H](C)[C@@H](O)[C@H](NC)C(=O)O; NMeF = CN[C@@H](Cc1ccccc1)C(=O)O; NMeI = CC[C@H](C)[C@H](NC)C(=O)O; NMeT = CN[C@H](C(=O)O)[C@@H](C)O; NMeL = CN[C@@H](CC(C)C)C(=O)O; NMeNle = CCCC[C@H](NC)C(=O)O; Tle = CC(C)(C)[C@H](N)C(=O)O; NMeV = CN[C@H](C(=O)O)C(C)C; NMeA = CN[C@@H](C)C(=O)O; Abu = CC[C@H](N)C(=O)O; Sar = CNCC(=O)O
Only the number, expressed in %, is required.

Some compounds with known % inhibition of CsA binding to Cyclophilin A results, for comparison:
[
  {
    "compound": "C/C=C/C[C@@H](C)[C@@H](O)[C@H]1C(=O)N[C@@H](CC)C(=O)N(C)CC(=O)N(C)[C@@H](CC(C)C)C(=O)N[C@@H](C(C)(C)C)C(=O)N(C)[C@@H](C)C(=O)N[C@@H](CC(C)C)C(=O)N[C@H](C)C(=O)N(C)[C@@H](CC(C)C)C(=O)N(C)[C@@H](CC(C)C)C(=O)N(C)[C@@H](C(C)C)C(=O)N1C [Compound C74] (cyclo([MeBmt][Abu][Sar][NMeL][Tle][NMeA]L[dA][NMeL][NMeL][NMeV]))",
    "reported": 95.08
  },
  {
    "compound": "C/C=C/C[C@@H](C)[C@@H](O)[C@H]1C(=O)N[C@@H](CC)C(=O)N(C)CC(=O)N(C)[C@@H]([C@@H](C)CC)C(=O)N[C@@H](C(C)C)C(=O)N(C)[C@@H](C)C(=O)N[C@@H](CC(C)C)C(=O)N[C@H](C)C(=O)N(C)[C@@H](CC(C)C)C(=O)N(C)[C@@H](CC(C)C)C(=O)N(C)[C@@H](C(C)C)C(=O)N1C [Compound C81] (cyclo([MeBmt][Abu][Sar][NMeI]V[NMeA]L[dA][NMeL][NMeL][NMeV]))",
    "reported": 99.24
  },
  {
    "compound": "C/C=C/C[C@@H](C)[C@@H](O)[C@H]1C(=O)N[C@@H](CC)C(=O)N(C)CC(=O)N(C)CC(=O)N[C@@H](C(C)(C)C)C(=O)N(C)[C@@H](C)C(=O)N[C@@H](CC(C)C)C(=O)N[C@H](C)C(=O)N(C)[C@@H](CC(C)C)C(=O)N(C)[C@@H](CC(C)C)C(=O)N(C)[C@@H](C(C)C)C(=O)N1C [Compound C73] (cyclo([MeBmt][Abu][Sar][Sar][Tle][NMeA]L[dA][NMeL][NMeL][NMeV]))",
    "reported": 99.99
  },
  {
    "compound": "C/C=C/C[C@@H](C)[C@@H](O)[C@H]1C(=O)N[C@@H](CC)C(=O)N(C)CC(=O)N(C)[C@@H]([C@@H](C)CC)C(=O)N[C@@H](C)C(=O)N(C)CC(=O)N[C@@H](C)C(=O)N[C@H](C)C(=O)N(C)[C@@H](CC(C)C)C(=O)N(C)[C@@H](CC(C)C)C(=O)N(C)[C@@H](C(C)C)C(=O)N1C [Compound C17] (cyclo([MeBmt][Abu][Sar][NMeI]A[Sar]A[dA][NMeL][NMeL][NMeV]))",
    "reported": 82.83
  },
  {
    "compound": "C/C=C/C[C@@H](C)[C@@H](O)[C@H]1C(=O)N[C@@H](CC)C(=O)N(C)CC(=O)N(C)[C@@H](C(C)C)C(=O)N[C@@H](CC(C)C)C(=O)N(C)[C@@H](CC(C)C)C(=O)N[C@@H](CC(C)C)C(=O)N[C@H](C)C(=O)N(C)[C@@H](CC(C)C)C(=O)N(C)[C@@H](CC(C)C)C(=O)N(C)[C@@H](C(C)C)C(=O)N1C [Compound C65] (cyclo([MeBmt][Abu][Sar][NMeV]L[NMeL]L[dA][NMeL][NMeL][NMeV]))",
    "reported": 99.73
  },
  {
    "compound": "C/C=C/C[C@@H](C)[C@@H](O)[C@H]1C(=O)N[C@@H](CC)C(=O)N(C)CC(=O)N(C)[C@@H]([C@@H](C)O)C(=O)N[C@@H](CC(C)C)C(=O)N(C)[C@@H](C)C(=O)N[C@@H](C)C(=O)N[C@H](C)C(=O)N(C)[C@@H](CC(C)C)C(=O)N(C)[C@@H](CC(C)C)C(=O)N(C)[C@@H](C(C)C)C(=O)N1C [Compound C15] (cyclo([MeBmt][Abu][Sar][NMeT]L[NMeA]A[dA][NMeL][NMeL][NMeV]))",
    "reported": 97.07
  },
  {
    "compound": "C/C=C/C[C@@H](C)[C@@H](O)[C@H]1C(=O)N[C@@H](CC)C(=O)N(C)CC(=O)N(C)CC(=O)N[C@@H](C(C)C)C(=O)N(C)[C@@H](CC(C)C)C(=O)N[C@@H](CC)C(=O)N[C@H](C)C(=O)N(C)[C@@H](CC(C)C)C(=O)N(C)[C@@H](CC(C)C)C(=O)N(C)[C@@H](C(C)C)C(=O)N1C [Compound C97] (cyclo([Abu][Sar][Sar]V[NMeL][Abu][dA][NMeL][NMeL][NMeV][MeBmt]))",
    "reported": 93.58
  },
  {
    "compound": "C/C=C/C[C@@H](C)[C@@H](O)[C@H]1C(=O)N[C@@H](CC)C(=O)N(C)CC(=O)N(C)[C@@H]([C@@H](C)O)C(=O)N[C@@H](CC(C)C)C(=O)N(C)[C@@H](CC(C)C)C(=O)N[C@@H](CC(C)C)C(=O)N[C@H](C)C(=O)N(C)[C@@H](CC(C)C)C(=O)N(C)[C@@H](CC(C)C)C(=O)N(C)[C@@H](C(C)C)C(=O)N1C [Compound C63] (cyclo([MeBmt][Abu][Sar][NMeT]L[NMeL]L[dA][NMeL][NMeL][NMeV]))",
    "reported": 95.36
  }
]

// recorded % inhibition of CsA binding to Cyclophilin A for C/C=C/C[C@@H](C)[C@@H](O)[C@H]1C(=O)N[C@@H](CC)C(=O)N(C)CC(=O)N(C)[C@@H](CCCC)C(=O)N[C@@H](C(C)(C)C)C(=O)N(C)[C@@H](C)C(=O)N[C@@H](CC(C)C)C(=O)N[C@H](C)C(=O)N(C)[C@@H](CC(C)C)C(=O)N(C)[C@@H](CC(C)C)C(=O)N(C)[C@@H](C(C)C)C(=O)N1C [Compound C80] (cyclo([MeBmt][Abu][Sar][NMeNle][Tle][NMeA]L[dA][NMeL][NMeL][NMeV])) : 96.65

Query C/C=C/C[C@@H](C)[C@@H](O)[C@H]1C(=O)N[C@@H](CC)C(=O)N(C)CC(=O)N(C)[C@@H](Cc2ccccc2)C(=O)N[C@@H](C(C)C)C(=O)N(C)CC(=O)N[C@@H](C)C(=O)N[C@H](C)C(=O)N(C)[C@@H](CC(C)C)C(=O)N(C)[C@@H](CC(C)C)C(=O)N(C)[C@@H](C(C)C)C(=O)N1C [Compound C27] (cyclo([MeBmt][Abu][Sar][NMeF]V[Sar]A[dA][NMeL][NMeL][NMeV])) yields % inhibition of CsA binding to Cyclophilin A of 94.73

###

Target: Cyclophilin A (Homo sapiens)
Construct: made in house
Assay: AlphaLISA inhibition of binding of biotinylated Cyclosporin A to FLAG tagged Cyclophilin A
Conditions: AlphaLISA signal; test concentration not given
Where a SMILES comes first, the peptide text is derived from it. [ ]: non-standard residue; d: D form. MeBmt = C/C=C/C[C@@H](C)[C@@H](O)[C@H](NC)C(=O)O; NMeF = CN[C@@H](Cc1ccccc1)C(=O)O; NMeT = CN[C@H](C(=O)O)[C@@H](C)O; NMeL = CN[C@@H](CC(C)C)C(=O)O; Tle = CC(C)(C)[C@H](N)C(=O)O; NMeNva = CCC[C@H](NC)C(=O)O; NMeV = CN[C@H](C(=O)O)C(C)C; NMeA = CN[C@@H](C)C(=O)O; Abu = CC[C@H](N)C(=O)O; Sar = CNCC(=O)O
value kind: % signal (%)
Please give a number only; it is taken to be in %.

Before answering, review these 2 worked examples.
[
  {
    "molecule": "C/C=C/C[C@@H](C)[C@@H](O)[C@H]1C(=O)N[C@@H](CC)C(=O)N(C)CC(=O)N(C)[C@@H](Cc2ccccc2)C(=O)N[C@@H](C(C)C)C(=O)N(C)[C@@H](CC(C)C)C(=O)N[C@@H](CC(C)C)C(=O)N[C@H](C)C(=O)N(C)[C@@H](CC(C)C)C(=O)N(C)[C@@H](CC(C)C)C(=O)N(C)[C@@H](C(C)C)C(=O)N1C [Compound C48] (cyclo([MeBmt][Abu][Sar][NMeF]V[NMeL]L[dA][NMeL][NMeL][NMeV]))",
    "value kind": "% signal",
    "reported": 15.72
  },
  {
    "molecule": "C/C=C/C[C@@H](C)[C@@H](O)[C@H]1C(=O)N[C@@H](CC)C(=O)N(C)CC(=O)N(C)[C@@H]([C@@H](C)O)C(=O)N[C@@H](CC(C)C)C(=O)N(C)[C@@H](C)C(=O)N[C@@H](C)C(=O)N[C@H](C)C(=O)N(C)[C@@H](CC(C)C)C(=O)N(C)[C@@H](CC(C)C)C(=O)N(C)[C@@H](C(C)C)C(=O)N1C [Compound C15] (cyclo([MeBmt][Abu][Sar][NMeT]L[NMeA]A[dA][NMeL][NMeL][NMeV]))",
    "value kind": "% signal",
    "reported": 2.93
  }
]

Now, please, on to the next molecule.
Just so you know, measured % signal for C/C=C/C[C@@H](C)[C@@H](O)[C@H]1C(=O)N[C@@H](CC)C(=O)N(C)CC(=O)N(C)[C@@H](CCC)C(=O)N[C@@H](C(C)(C)C)C(=O)N(C)[C@@H](C)C(=O)N[C@@H](CC(C)C)C(=O)N[C@H](C)C(=O)N(C)[C@@H](CC(C)C)C(=O)N(C)[C@@H](CC(C)C)C(=O)N(C)[C@@H](C(C)C)C(=O)N1C [Compound C78] (cyclo([MeBmt][Abu][Sar][NMeNva][Tle][NMeA]L[dA][NMeL][NMeL][NMeV])) came out at 1.42
